Answer each item with its documented cell viability.
Tested on: K562
Protocol notes: cell viability relative to vehicle control; higher = less cytotoxic;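 also: after 48 h exposure read by CellTiter-Glo luminescence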
Condition label: 10 µM; SRSF2 genotype: SRSF2 wt/wt
Structures can show the parent of a compound that is named as a salt.
Dear colleague, please send the value followed by its unit.

Fill in: cell viability of `O=C(NO)c1cnc(NC2(c3ccccc3)CC2)nc1` is ___
35.4%

Fill in: cell viability of `CCCCOCc1ccc(O)c(OC)c1` is ___
101%

Fill in: cell viability of O=C(O)COCCN1CCN([C@H](c2ccccc2)c2ccc(Cl)cc2)CC1 [Levocetirizine Dihydrochloride] is ___
101%

Fill in: cell viability of `CC(C)c1cc(C(=O)N2Cc3ccc(CN4CCN(C)CC4)cc3C2)c(O)cc1O` is ___
24%

Fill in: cell viability of `C=CC(=O)Nc1cccc(Oc2nc(Nc3ccc(N4CCN(C)CC4)cc3OC)ncc2Cl)c1` is ___
103%

Fill in: cell viability of `COC(=O)C1=C(C)NC(C)=C(C(=O)OC)C1c1ccccc1[N+](=O)[O-]` is ___
80.8%

Fill in: cell viability of `O=C(CCCCCCNC(=O)c1cnc(N(c2ccccc2)c2ccccc2Cl)nc1)NO` is ___
47.4%

Fill in: cell viability of Cc1ccccc1C(OCCN(C)C)c1ccccc1 (centres undefined) [Orphenadrine Hydrochloride] is ___
101%

Fill in: cell viability of `COc1ncc(-c2ccc3nccc(-c4ccnnc4)c3c2)cc1NS(=O)(=O)c1ccc(F)cc1F` is ___
34.8%

---

Test system: OCI-AML2
Protocol notes: cell viability relative to vehicle control; higher = less cytotoxic
Condition label: 10 µM; SRSF2 genotype: P95H/wt
Kindly apply the following: fulfilled if cell viability is less than 90%, not fulfilled in every other case.

Check if cell viability falls below 90% for CC(C)=CCC/C(C)=C/C=O [Citral] .
not fulfilled

Check if cell viability falls below 90% for `CC(C)N1CCN(Cc2cnc(-c3cc(-c4cccc5[nH]ccc45)cc4[nH]ncc34)o2)CC1` .
fulfilled

Check if cell viability falls below 90% for `CC(=O)N1CCC(Nc2cc(C(=O)NC[C@H](O)CN3CCc4ccccc4C3)ncn2)CC1` .
fulfilled

Check if cell viability falls below 90% for `CC(=O)OCOC(=O)CN(CC(=O)OCOC(C)=O)c1ccccc1OCCOc1ccccc1N(CC(=O)OCOC(C)=O)CC(=O)OCOC(C)=O` .
fulfilled

---

System: MOLM14
Protocol notes: cell viability relative to vehicle control; higher = less cytotoxic
Condition label: 10 µM; SRSF2 genotype: SRSF2 P95H/wt
Assay metric: cell viability (%)
The figure you give is taken to be in %; do not add the unit.

Fill in: cell viability of C[C@H]1COc2c(N3CCN(C)CC3)c(F)cc3c(=O)c(C(=O)O)cn1c23 [Levofloxacin hydrate] is ___
97.2

Fill in: cell viability of CCCCCCCCCCCCCCCC(=O)OCC(O)C1OC(=O)C(O)=C1O [L-Ascorbyl 6-palmitate] is ___
106

Fill in: cell viability of CC1(C)O[C@@H]2C[C@H]3[C@@H]4C[C@H](F)C5=CC(=O)C=C[C@]5(C)[C@@]4(F)[C@@H](O)C[C@]3(C)[C@]2(C(=O)CO)O1 [Fluocinolone acetonide (Flucort-N)] is ___
95.6

Fill in: cell viability of `C[C@@]12C[C@H](c3ccoc3)O[C@@]13C[C@H](OC3=O)[C@H]1[C@H]2C[C@@H]2C[C@H]1C(=O)O2` is ___
108

Fill in: cell viability of CC1(C)O[C@@H]2C[C@H]3[C@@H]4CCC5=CC(=O)C=C[C@]5(C)[C@@]4(F)[C@@H](O)C[C@]3(C)[C@]2(C(=O)CO)O1 [Triamcinolone Acetonide] is ___
100

Fill in: cell viability of CC1(C)CCC2(C(=O)O)CCC3=C(C(CCl)CC4C3(C)CCC3C4(C)CC(O)C(O)C3(C)C(=O)O)C2C1 (stereo not given) is ___
100

Fill in: cell viability of `C[C@H](CSC(=O)c1ccccc1)C(=O)N1C[C@@H](Sc2ccccc2)C[C@H]1C(=O)O` is ___
98.3

Fill in: cell viability of `CC(=NNC(=S)N1CCC1)c1ccccn1` is ___
1.22

Fill in: cell viability of `O=C1CN(/N=C/C=C/c2ccc([N+](=O)[O-])o2)C(=O)N1` is ___
105

Fill in: cell viability of `O=C1NC(=NCc2cccs2)S/C1=C\c1ccc2ncccc2c1` is ___
37

Fill in: cell viability of `COc1cc2c3cc1Oc1c(OC)c(OC)cc4c1[C@@H](Cc1ccc(O)c(c1)Oc1ccc(cc1)C[C@@H]3N(C)CC2)N(C)CC4` is ___
72.8

Fill in: cell viability of `CC[C@@H]1[C@H]2CCCCN3[C@H]2[C@H](C[C@H]3[C@@H]2C[C@H](C)C(=O)O2)[C@@H]2[C@H]1OC(=O)[C@H]2C` is ___
64

Fill in: cell viability of `Cc1c(NC(=O)c2ccc(C(C)(C)C)cc2)cccc1-c1cn(C)c(=O)c(Nc2ccc(C(=O)N3CCOCC3)cc2)n1` is ___
96.1

Fill in: cell viability of `CCCCC[C@H](O)/C=C/[C@H]1[C@H](O)CC(=O)[C@@H]1C/C=C\CCCC(=O)O` is ___
59.1

Fill in: cell viability of `Cc1nnc(NS(=O)(=O)c2ccc(N)cc2)s1` is ___
100

---

System: MOLM14
Protocol notes: cell viability relative to vehicle control; higher = less cytotoxic
Condition label: 10 µM; SRSF2 genotype: SRSF2 wt/wt
Counter-ions that a name gives are not always drawn.
Assay metric: cell viability (%)
The figure you give is taken to be in %; do not add the unit.

Fill in: cell viability of `C[C@H]1CO[C@@H]2Cn3cc(C(=O)NCc4ccc(F)cc4F)c(=O)c(O)c3C(=O)N12` is ___
88.8

Fill in: cell viability of `CN(C)CCCNC(=O)c1ccc(-c2cc(O)c3ncccc3c2)cc1` is ___
24.9

Fill in: cell viability of `COc1cc(OC)c(/C=C/S(=O)(=O)Cc2ccc(OC)c(NCC(=O)O)c2)c(OC)c1` is ___
0.74

Fill in: cell viability of `NC(=O)[C@@H](CCC(F)(F)F)N(Cc1ccc(-c2ncon2)cc1F)S(=O)(=O)c1ccc(Cl)cc1` is ___
97.9

Fill in: cell viability of OC(CNCC(O)C1CCc2cc(F)ccc2O1)C1CCc2cc(F)ccc2O1 (stereo unspecified) [Nebivolol HCl] is ___
62.5

Fill in: cell viability of CO/N=C(\C(=O)N[C@@H]1C(=O)N2C(C(=O)O)=C(Cn3ccc(=N)n3CCO)CS[C@H]12)c1csc(N)n1 [Cefoselis sulfate] is ___
101

Fill in: cell viability of `O=C(O)C1=CO[C@@H](O[C@@H]2O[C@H](CO)[C@@H](O)[C@H](O)[C@H]2O)[C@H]2[C@@H]1C=C[C@]2(O)CO` is ___
104

Fill in: cell viability of `COc1ccc2[nH]cc(/C=C3\C(=O)Nc4ccc(NC(=O)CCN5CCCCC5)cc43)c2c1` is ___
0.77

Fill in: cell viability of C[C@@H](O[C@H]1OCCN(Cc2n[nH]c(=O)[nH]2)[C@H]1c1ccc(F)cc1)c1cc(C(F)(F)F)cc(C(F)(F)F)c1 [Aprepitant (MK-0869)] is ___
64.3

Fill in: cell viability of CC(C)Cc1ccc([C@@H](C)C(=O)NS(C)(=O)=O)cc1 [Reparixin (Repertaxin)] is ___
98.4

Fill in: cell viability of `COc1ccc2c(Oc3ccc(NC(=O)c4c(C)n(CC(C)(C)O)n(-c5ccccc5)c4=O)nc3)ccnc2c1` is ___
10.7

Fill in: cell viability of `CCn1c(C(=O)N(C2CC2)C2CC2)cc2c3c(ncn3C)c(Nc3cc(C)n(C)n3)nc21` is ___
38.5

Fill in: cell viability of `N#Cc1cc(-c2n[nH]c(-c3ccncc3)n2)ccn1` is ___
103

Fill in: cell viability of CCC(=O)O[C@]1(C(=O)CCl)[C@@H](C)C[C@H]2[C@@H]3CCC4=CC(=O)C=C[C@]4(C)[C@@]3(F)[C@@H](O)C[C@@]21C [Clobetasol propionate] is ___
80.8

Fill in: cell viability of NC(=O)N1c2ccccc2CC(=O)c2ccccc21 [Oxcarbazepine] is ___
92.3

Fill in: cell viability of `NC(=O)N1CCC(CC(=O)N2CCC([C@H]3c4ncc(Br)cc4CCc4cc(Cl)cc(Br)c43)CC2)CC1` is ___
35.7

---

Test system: MOLM14
Protocol notes: cell viability relative to vehicle control; higher = less cytotoxic
Condition label: 10 µM; SRSF2 genotype: SRSF2 P95H/wt
Structures can show the parent of a compound that is named as a salt.
Kindly apply the following: T if cell viability is less than 90%, F in every other case.

Check if cell viability falls below 90% for COc1nc2ccc(Br)cc2cc1[C@@H](c1ccccc1)[C@@](O)(CCN(C)C)c1cccc2ccccc12 [Bedaquiline fumarate] .
T

Check if cell viability falls below 90% for Cc1ccccc1C(OCCN(C)C)c1ccccc1 (stereo not given) [Orphenadrine Hydrochloride] .
F

Check if cell viability falls below 90% for CC[C@H]1OC(=O)[C@H](C)[C@@H](O[C@H]2C[C@@](C)(OC)[C@@H](O)[C@H](C)O2)[C@H](C)[C@@H](O[C@@H]2O[C@H](C)C[C@H](N(C)C)[C@H]2O)[C@](C)(O)C[C@@H](C)CN(C)[C@H](C)[C@@H](O)[C@]1(C)O [Azithromycin Dihydrate] .
T

Check if cell viability falls below 90% for `Cc1cnc(NC(=O)Nc2cc(Br)c(C)cc2OC[C@@H]2CNCCO2)cn1` .
T

Check if cell viability falls below 90% for OCC(O)C(O)C(O)C(O)CO (stereo not given) [Dulcitol] .
F

Check if cell viability falls below 90% for COc1cc2oc(-c3ccccc3)cc(=O)c2c(OC)c1OC [5,6,7-Trimethoxyflavone] .
F

Check if cell viability falls below 90% for O=C1CCc2c(ccc3ccccc23)O1 [Splitomicin] .
F

Check if cell viability falls below 90% for Nc1nc(CC(=O)Nc2ccc(CCNC[C@H](O)c3ccccc3)cc2)cs1 [Mirabegron (YM178)] .
F

Check if cell viability falls below 90% for Cc1ncc(CO)c(CO)c1O [Pyridoxine hydrochloride] .
F

Check if cell viability falls below 90% for CC(=O)OCC1=C(C(=O)O)N2C(=O)C(NC(=O)CSC(=NC(C)C)NC(C)C)C2SC1 (stereo not given) [Cefathiamidine] .
F

Check if cell viability falls below 90% for CCNC(=O)c1noc(-c2cc(C(C)C)c(O)cc2O)c1-c1ccc(CN2CCOCC2)cc1 [Luminespib (AUY-922, NVP-AUY922)] .
T

Check if cell viability falls below 90% for `O=C(O)c1cc(C(F)(F)F)ccc1N1CC[C@H](OCc2ccccn2)C1` .
F

Check if cell viability falls below 90% for Cc1ccc(NC(=O)c2ccc(CN3CC[C@H](N(C)C)C3)c(C(F)(F)F)c2)cc1Nc1nccc(-c2cncnc2)n1 [Bafetinib (INNO-406)] .
T

Check if cell viability falls below 90% for C=CC(=O)N1CC[C@@H](Oc2nc(Nc3ccc(N4CCC(N5CCN(C)CC5)CC4)cc3)c(C(N)=O)nc2CC)C1 [ASP8273 (Naquotinib)] .
T

Check if cell viability falls below 90% for COC(=O)[C@H](c1ccccc1Cl)N1CCc2sccc2C1 [Clopidogrel (Plavix)] .
F

Check if cell viability falls below 90% for `NS(=O)(=O)NCCNc1nonc1/C(=N/O)Nc1ccc(F)c(Br)c1` .
F

Check if cell viability falls below 90% for COc1cc2c(cc1O)[C@@H](Cc1ccc(O)c(Oc3ccc(C[C@@H]4c5cc(OC)c(OC)cc5CCN4C)cc3)c1)N(C)CC2 [Daurisoline] .
T

Check if cell viability falls below 90% for Nc1nc(Cl)nc2c1ncn2[C@H]1C[C@H](O)[C@@H](CO)O1 [Cladribine] .
T

Check if cell viability falls below 90% for CC1(C)CCCC2(C)C1CCC1(C)OCCC12 (single isomer, unassigned; (-)) [(-)-Ambroxide] .
F

Check if cell viability falls below 90% for CN1CCC(=C2c3ccccc3C=Cc3ccccc32)CC1 [Cyproheptadine hydrochloride (Periactin)] .
T

Check if cell viability falls below 90% for Cc1cc(-n2c(=O)[nH]c(=O)n(C)c2=O)ccc1Oc1ccc(SC(F)(F)F)cc1 [Toltrazuril] .
F

Check if cell viability falls below 90% for `Nc1nonc1C(=Nc1ccc(F)c(Cl)c1)NO` .
F

Check if cell viability falls below 90% for COc1cc2c(cc1O)C[C@H]1c3cc(O)c(OC)cc3CC[N+]1(C)C2 (stereo not given in full) [Phellodendrine chloride] .
F

Check if cell viability falls below 90% for CC(C)=CCC[C@](C)(O[C@@H]1O[C@H](CO[C@@H]2OC[C@@H](O)[C@H](O)[C@H]2O)[C@@H](O)[C@H](O)[C@H]1O)[C@H]1CC[C@]2(C)[C@@H]1[C@H](O)C[C@@H]1[C@@]3(C)CC[C@H](O[C@@H]4O[C@H](CO)[C@@H](O)[C@H](O)[C@H]4O[C@@H]4O[C@H](CO)[C@@H](O)[C@H](O)[C@H]4O)C(C)(C)[C@@H]3CC[C@]12C [Ginsenoside Rb3] .
F

Check if cell viability falls below 90% for O=CO [Formate] .
F

Check if cell viability falls below 90% for C=C(C)[C@@H]1CC[C@]2(C)CC[C@]3(C)[C@H](CC[C@@H]4[C@@]5(C)CC[C@H](O)C(C)(C)[C@@H]5CC[C@]43C)[C@@H]12 [Lupeol] .
F

Check if cell viability falls below 90% for COc1ccc(CCCOC(Cn2ccnc2)c2ccc(OC)cc2)cc1 (stereo not given) .
T

Check if cell viability falls below 90% for CC1(C)[C@@H](O)CC[C@]2(C)[C@H]3C(=O)C=C4[C@@H]5C[C@@](C)(C(=O)O)CC[C@]5(C)CC[C@@]4(C)[C@]3(C)CC[C@@H]12 [Enoxolone (Glycyrrhetin)] .
F
